Quick reference: T of the listed items.
- Tested on: Salmonidae
- EXPERIMENT NOTES: Binding affinity to salmon testes duplex DNA assessed as thermal transition temperature at 15 uM preincubated for 5 mins at 90 degC followed by cooling at room temperature measured after 4 hrs by UV spectrophotometric analysis in presence of 50 mM K+ (reference value: 78.2 degC)
Field: numeric (°C). Do not append units.

Example molecules with recorded T:
NCC[C@@H]1NC(=O)c2coc(n2)-c2coc(n2)-c2cccc(c2)-c2cccc(c2)-c2nc(co2)-c2nc(co2)CNC1=O 81.1
O=C1N[C@@H](Cc2ccccc2)C(=O)NCc2coc(n2)-c2coc(n2)-c2cccc(c2)-c2cccc(c2)-c2nc(co2)-c2nc1co2 77.2
O=C1CNC(=O)c2coc(n2)-c2coc(n2)-c2cccc(c2)-c2cccc(c2)-c2nc(co2)-c2nc(co2)CN1 78.2

May I ask what T has been recorded for CC(C)[C@@H]1NC(=O)c2coc(n2)-c2coc(n2)-c2coc(n2)[C@H](CCN(C)C)NC(=O)c2coc(n2)-c2coc(n2)-c2coc1n2 ?
78.2

T lookup needed for CN(C)CC[C@@H]1NC(=O)c2coc(n2)-c2coc(n2)-c2cccc(c2)-c2cccc(c2)-c2nc(co2)-c2nc(co2)CNC1=O , thanks.
79.1

Query: T; subject: CC(C)[C@@H]1NC(=O)c2coc(n2)-c2coc(n2)-c2cccc(c2)-c2cccc(c2)-c2nc(co2)-c2nc(co2)CNC1=O
78.2

Name the reported T value associated with the molecule CC(C)[C@@H]1NC(=O)c2coc(n2)-c2coc(n2)-c2coc(n2)C/C=C/c2coc(n2)-c2coc(n2)-c2coc1n2
78.2

Please give the measured T for this molecule: CC(C)(C)OC(=O)NCC[C@@H]1NC(=O)c2coc(n2)-c2coc(n2)-c2cccc(c2)-c2cccc(c2)-c2nc(co2)-c2nc(co2)CNC1=O
78.3

Which measured T value corresponds to CN(C)CCc1cc2cc(c1)CNC(=O)c1coc(n1)-c1coc(n1)-c1cccc(n1)-c1nc(co1)-c1nc(co1)C(=O)NC2 ?
78.7

Cited source for all entries: ChEMBL document CHEMBL2412965
